Hey, just so you know, these numbers are from paper PMC11982978.

molecular target: Active phosphorylated His6-tagged ERK2 R133K (rat (p-0033 says mouse)) (UniProt P63086)
measuredAttribute: IC50 (µM)
The response must be a number in µM with no trailing unit.

Look up IC50 with Active phosphorylated His6-tagged ERK2 R133K (rat (p-0033 says mouse)) (UniProt P63086) for this substance: `MLXIPL`
23

* * *

molecular target: Active phosphorylated His6-tagged ERK2 E320K (rat (p-0033 says mouse)) (UniProt P63086)
measuredAttribute: pIC50
Keep in mind that pIC50 stands for -log10 of concentration in molar terms.

Requested read-out pIC50, target or system Active phosphorylated His6-tagged ERK2 E320K (rat (p-0033 says mouse)) (UniProt P63086), entry `MLXIPL`
4.55

* * *

biological target: Active phosphorylated His6-tagged ERK2 E320K (rat (p-0033 says mouse))
measuredAttribute: pIC50
As a rule, pIC50 stands for the negative log10 of the concentration, concentration in M.

Look up pIC50 with Active phosphorylated His6-tagged ERK2 E320K (rat (p-0033 says mouse)) for this substance: `ELMSAN1`
4.40

* * *

biological target: Active phosphorylated His6-tagged ERK2 R133K (rat (p-0033 says mouse))
measuredAttribute: pIC50
Convention used: pIC50 is expressed as -log10 of the molar concentration.

State the recorded pIC50 for this entry: `ELMSAN1`
4.57

* * *

molecular target: Active phosphorylated His6-tagged ERK2 D319N (rat (p-0033 says mouse)) (UniProt P63086)
measuredAttribute: IC50 (µM)
Reply numerically in µM, unit not repeated.

For Active phosphorylated His6-tagged ERK2 D319N (rat (p-0033 says mouse)) (UniProt P63086), provide IC50 of `ELMSAN1` please.
30

* * *

biological target: Active phosphorylated His6-tagged ERK2 WT (rat (p-0033 says mouse))
measuredAttribute: IC50
Express the reported value numerically, then name its unit.

# value lookup — system Active phosphorylated His6-tagged ERK2 WT (rat (p-0033 says mouse)), readout IC50, item `MLXIPL`
18 µM
